test: amyloid nucleation score (Sup35N fusion, yeast selection) (log enrichment); library NNK3; higher = more nucleation; inactive = no reads after selection;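 also: zero at mode of non-aggregating sequences after 7 days selection at 30°C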
recorded-metric: amyloid nucleation score

Worked set:
macromolecule-sequence	amyloid nucleation score
VVILGLHRVVDRRNAKVAKL	inactive
WFCLRTTVTPLDGFVLWYWE	inactive
SYSDRGCVGMNVLSVFEGWD	inactive
GSTSRIPGVLVSKRRANMQH	inactive
LICYLYAKMC	inactive

// next entry
IN: Requested field: amyloid nucleation score. Item: "KACWLYLIFIFFGWVYSKTI"
OUT: 0.745

* * *

assay: amyloid nucleation score (Sup35N fusion, yeast selection) (log enrichment); library NNK3; higher = more nucleation; inactive = no reads after selection
recorded-metric: amyloid nucleation score

substance	observed-result
VIGVNIWSCL	1.29
SVDGDLAEDNMLMVSFSIGK	0.128
LVPFSNGCQSGPLTLIWYVA	2.04
KFGHSVKSINLLNATTHVWI	-0.126
DVFSDSQVVENRV	inactive
NGTATADRSNKSVPFPSI	inactive
TSLGFSLSSSTDAFVEKFEG	1.56
YIQITQMAALARLYIYMRMC	inactive

IN: Which amyloid nucleation score is listed for "TENKSMSFFNYDRAYARIL" ?
OUT: inactive

IN: Consider the substance "GIMMSD" and give its measured amyloid nucleation score.
OUT: inactive

IN: // returns reported amyloid nucleation score for input "SLASYLFTVTATNRYCERGA"
OUT: 0.996

Data origin, for the record: the supplement of paper PMC12042874
